Consider the following compounds and their measured IC50 readings.
- target entity: Endothelin receptor (Rattus norvegicus, UniProt P26684+P21451)
- assay name: Binding affinity against Endothelin receptor from rat heart ventricle
- Assay type: protein assay
Where a SMILES comes first, the peptide text is derived from it. [ ]: non-standard residue; d: D form.
Numbers only here, please. The scale is µM.

compound	units label	IC50
CC[C@H](C)[C@H](NC(=O)[C@H](CCCCN)NC(=O)[C@H](CC(C)C)NC(=O)[C@@H](Cc1ccccc1)NC(C)=O)C(=O)N[C@H](C(=O)N[C@@H](Cc1c[nH]c2ccccc12)C(=O)O)[C@@H](C)CC	µM	12
CC[C@H](C)[C@H](NC(=O)[C@H](Cc1ccccc1)NC(=O)[C@H](CC(C)C)NC(=O)[C@@H](Cc1ccccc1)NC(C)=O)C(=O)N[C@H](C(=O)N[C@@H](Cc1c[nH]c2ccccc12)C(=O)O)[C@@H](C)CC (Ac-[dF]LFIIW-OH)	µM	0.38
CC[C@H](C)[C@H](NC(=O)[C@H](CC(=O)O)NC(=O)[C@H](CC(C)C)NC(=O)[C@@H](Cc1ccccc1)NC(C)=O)C(=O)N[C@@H](Cc1c[nH]c2ccccc12)C(=O)O (Ac-[dF]LDIW-OH)	µM	24.5

Lab note: next compound to report on.
Task item: IC50 for `CC[C@H](C)[C@H](NC(=O)[C@H](CC(=O)O)NC(=O)[C@H](CC(C)C)NC(=O)[C@@H](Cc1ccccc1)NC(C)=O)C(=O)N[C@@H](CCC(=O)O)C(=O)N[C@@H](Cc1c[nH]c2ccccc12)C(=O)O` ?
Reply: 5.2

====

# EC50 values compiled below
- target entity: Endothelin receptor type B (Rattus norvegicus, UniProt P21451)
- assay name: Effective concentration against Endothelin B receptor from rat cerebellum
Where a SMILES comes first, the peptide text is derived from it. [ ]: non-standard residue; d: D form. dDip = N[C@@H](C(=O)O)C(c1ccccc1)c1ccccc1
Provide only the numeric value, understood in nM.

compound	EC50, nM
CC[C@H](C)[C@H](NC(=O)[C@@H](NC(=O)[C@H](CC(=O)O)NC(=O)[C@H](CC(C)C)NC(=O)[C@H](NC(C)=O)C(c1ccccc1)c1ccccc1)C(C)C)C(=O)N[C@@H](Cc1c[nH]c2ccccc12)C(=O)O (Ac-[dDip]LDVIW-OH)	50

Now consider the entry below.
Task item: Name the reported EC50 value associated with the compound CC[C@H](C)[C@H](NC(=O)[C@H](Cc1ccccc1)NC(=O)[C@H](CC(C)C)NC(=O)[C@H](NC(C)=O)C(c1ccccc1)c1ccccc1)C(=O)N[C@H](C(=O)N[C@@H](Cc1c[nH]c2ccccc12)C(=O)O)[C@@H](C)CC (Ac-[dDip]LFIIW-OH)
Reply: 60

====

- target entity: Endothelin receptor type B (Rattus norvegicus, UniProt P21451)
- Sequence (P21451 whole entry): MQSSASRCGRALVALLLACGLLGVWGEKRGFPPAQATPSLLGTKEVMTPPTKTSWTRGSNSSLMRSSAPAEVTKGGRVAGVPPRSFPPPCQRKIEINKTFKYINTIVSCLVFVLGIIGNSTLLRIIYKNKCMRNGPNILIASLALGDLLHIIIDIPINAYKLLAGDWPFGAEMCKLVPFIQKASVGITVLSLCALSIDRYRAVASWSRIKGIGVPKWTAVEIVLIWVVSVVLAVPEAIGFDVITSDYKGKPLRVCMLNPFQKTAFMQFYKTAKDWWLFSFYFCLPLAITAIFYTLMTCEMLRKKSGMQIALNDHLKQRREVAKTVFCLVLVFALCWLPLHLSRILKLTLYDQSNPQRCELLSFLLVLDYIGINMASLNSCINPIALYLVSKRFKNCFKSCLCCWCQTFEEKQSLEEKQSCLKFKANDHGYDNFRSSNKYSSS
- assay name: Effective concentration against Endothelin B receptor from rat cerebellum
Where a SMILES comes first, the peptide text is derived from it. [ ]: non-standard residue; d: D form. dDip = N[C@@H](C(=O)O)C(c1ccccc1)c1ccccc1; Orn = NCCC[C@H](N)C(=O)O
Note to self: use TRUE only for EC50 readings below 2000 nM; a reading exactly at 2000 nM still gets FALSE.

Solved cases (4 shown):
molecule	group
CC[C@H](C)[C@H](NC(=O)[C@H](CC(=O)O)NC(=O)[C@H](CC(C)C)NC(=O)[C@H](N)C(c1ccccc1)c1ccccc1)C(=O)N[C@H](C(=O)N[C@@H](Cc1c[nH]c2ccccc12)C(=O)O)[C@@H](C)CC (H-[dDip]LDIIW-OH)	TRUE
CC[C@H](C)[C@H](NC(=O)[C@H](CC(=O)O)NC(=O)[C@H](CCCN)NC(=O)[C@H](NC(C)=O)C(c1ccccc1)c1ccccc1)C(=O)N[C@H](C(=O)N[C@@H](Cc1c[nH]c2ccccc12)C(=O)O)[C@@H](C)CC (Ac-[dDip][Orn]DIIW-OH)	TRUE
CC[C@H](C)[C@H](NC(=O)[C@H](CC(=O)O)NC(=O)[C@H](CC(C)C)NC(=O)[C@H](NC(C)=O)C(c1ccccc1)c1ccccc1)C(=O)N[C@H](C(=O)N[C@@H](Cc1ccc(O)cc1)C(=O)O)[C@@H](C)CC (Ac-[dDip]LDIIY-OH)	FALSE
CC[C@H](C)[C@H](NC(=O)[C@H](CC(=O)O)NC(=O)[C@H](CCC(=O)O)NC(=O)[C@H](NC(C)=O)C(c1ccccc1)c1ccccc1)C(=O)N[C@H](C(=O)N[C@@H](Cc1c[nH]c2ccccc12)C(=O)O)[C@@H](C)CC (Ac-[dDip]EDIIW-OH)	TRUE

Task item: Strictly below 2000 nM in EC50? CC[C@H](C)[C@H](NC(=O)[C@H](CC(=O)O)NC(=O)[C@H](CC(C)C)NC(=O)[C@H](NC(C)=O)C(c1ccccc1)c1ccccc1)C(=O)N[C@H](C(=O)N[C@@H](Cc1c[nH]c2ccccc12)C(=O)O)C(C)C (Ac-[dDip]LDIVW-OH)
Reply: FALSE

====

- Species on record: Oryctolagus cuniculus
- assay name: Inhibition of ET-1 stimulated arachidonic acid release in rabbit renal artery vascular smooth muscle cells
- Type: functional
pIC50: −log10 of the molar value. Where a SMILES comes first, the peptide text is derived from it. [ ]: non-standard residue; d: D form.
Item-by-item account of pIC50

Worked cases, pIC50 given:
molecule	pIC50
CC[C@H](C)[C@H](NC(=O)[C@H](CC(=O)O)NC(=O)[C@H](CC(C)C)NC(=O)[C@@H](Cc1ccccc1)NC(C)=O)C(=O)N[C@H](C(=O)N[C@@H](Cc1csc2ccccc12)C(=O)O)[C@@H](C)CC	< 5.00
CC[C@H](C)[C@H](NC(=O)[C@H](CC(=O)O)NC(=O)[C@H](CC(C)C)NC(=O)[C@@H](Cc1ccccc1)NC(C)=O)C(=O)N[C@@H](C)C(=O)N[C@@H](Cc1c[nH]c2ccccc12)C(=O)O (Ac-[dF]LDIAW-OH)	< 5.00

Task item: // query pIC50 value for entry `CC[C@H](C)[C@H](NC(=O)[C@H](CCC(=O)O)NC(=O)[C@H](CC(=O)O)NC(=O)[C@H](CC(C)C)NC(=O)[C@@H](Cc1ccccc1)NC(C)=O)C(=O)N[C@@H](Cc1c[nH]c2ccccc12)C(=O)O`
Reply: < 5.00
